Molecular target: binding partner of C5A (XPA23)
Experiment: Biacore

>  <binder>
C5A (XPA23) VH I51L (antibody, V domains shown) VH: EVQLLESGGGLVQPGGSLRLSCAASGFTFSKYFMFWVRQAPGKGLEWVSVLSPSGGMTRYADSVKGRFTISRDNSKNTLYLQMNSLRAEDTAVYYCARVGYGGNSDYWGQGTLVTVSS VL: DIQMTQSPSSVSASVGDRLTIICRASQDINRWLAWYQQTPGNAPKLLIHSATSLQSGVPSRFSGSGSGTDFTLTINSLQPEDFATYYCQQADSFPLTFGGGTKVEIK

>  <fold difference in affinity vs original (fold)>
0.79

$$$$
>  <binder>
C5A (XPA23) VH N104T (antibody, V domains shown) VH: EVQLLESGGGLVQPGGSLRLSCAASGFTFSKYFMFWVRQAPGKGLEWVSVISPSGGMTRYADSVKGRFTISRDNSKNTLYLQMNSLRAEDTAVYYCARVGYGGTSDYWGQGTLVTVSS VL: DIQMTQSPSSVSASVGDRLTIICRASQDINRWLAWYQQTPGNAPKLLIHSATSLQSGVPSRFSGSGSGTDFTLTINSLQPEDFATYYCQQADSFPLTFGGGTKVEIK

>  <fold difference in affinity vs original (fold)>
0.95

$$$$
>  <binder>
C5A (XPA23) VH S54I (antibody, V domains shown) VH: EVQLLESGGGLVQPGGSLRLSCAASGFTFSKYFMFWVRQAPGKGLEWVSVISPIGGMTRYADSVKGRFTISRDNSKNTLYLQMNSLRAEDTAVYYCARVGYGGNSDYWGQGTLVTVSS VL: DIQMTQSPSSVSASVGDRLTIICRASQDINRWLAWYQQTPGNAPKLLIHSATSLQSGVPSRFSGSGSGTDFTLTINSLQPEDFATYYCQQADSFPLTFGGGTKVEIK

>  <fold difference in affinity vs original (fold)>
0.86

$$$$
